- System: human CLDN18.2 (human)
- Test Name: cell-based or functional assay
ADCC Maximum killing (%), PBMC effector cells, KATOIII target cells values by entry
All answers are understood in %, so give the number only.

Take a look at these entries with their results.
Binder	Numeric Result
humanized antibody hz40F6-1.4 (antibody, human IgG1, kappa, V domains shown) VH: QVQLVESGGGVVQPGRSLRLSCTVSGFTLTSYGVYWVRQAPGKGLEWVAVVWAGGNTNYNSALKGRFTISKDNSKSTLYLQMNSLRAEDTAVYYCARDRGRLLAMDYWGQGTLVTVSS VL: DIVMTQSPDSLAVSLGERATINCKSSQSLLNSGNQKNYLAWYQQKPGQPPKLLIYGASTRESGVPDRFTGSGSGTDFTLTISSLQAEDVAVYYCQNDHFFPFTFGQGTKVEIKR	13.3
chimeric antibody xi28G3 (antibody, human IgG1, kappa, V domains shown, Mouse variable regions on human IgG1/kappa; defucosylated, expressed in FUT8-knockout CHO-S cells; also called chimeric 28G3) VH: EIQLQQTGPELVKPGASVTISCKTSGYSFTDYLMLWVKQSHGKSLEWIGNINPYYGRTTYNLKFKGKATLTVDRSSSTAYMQLNSLTSEDSAVYYCARDGYSLRNAMDYWGQGTSVTVSS VL: DIVMTQSPYSLSVSTGEKVTMSCKSSQSLFNSGNQKNYLAWYQQKPGQPPKLLIYGASTRESGVPDRFTGSGSGTDFTLTISSVQAEDLALYYCQNAHSYPYTFGGGTKLEIKR	29.9
humanized antibody hz28G3-1.3 (antibody, human IgG1, kappa, V domains shown) VH: QVQLVQSGAEVKKPGASVKVSCKTSGYSFTDYLMLWVRQAHGQSLEWMGNINPYYGRTTYALKFKGRVTMTVDRSTSTVYMELSSLRSEDTAVYYCARDGYSLRNAMDYWGQGTLVTVSS VL: DIVMTQSPDSLAVSLGERATINCKSSQSLFNSGNQKNYLAWYQQKPGQPPKLLIYGASTRESGVPDRFSGSGSGTDFTLTISSLQAEDVAVYYCQNAHSYPYTFGQGTKVEIKR	25.3

Consider the record given below.
IN: Supply reported ADCC Maximum killing (%), PBMC effector cells, KATOIII target cells belonging to this binder: humanized antibody hz28G3-1.1 (antibody, human IgG1, kappa, V domains shown) VH: QVQLVQSGAEVKKPGASVKVSCKTSGYSFTDYLMLWVRQAPGQGLEWMGNINPYYGRTTYALKFKGRVTMTVDRSTSTVYMELSSLRSEDTAVYYCARDGYSLRNAMDYWGQGTLVTVSS VL: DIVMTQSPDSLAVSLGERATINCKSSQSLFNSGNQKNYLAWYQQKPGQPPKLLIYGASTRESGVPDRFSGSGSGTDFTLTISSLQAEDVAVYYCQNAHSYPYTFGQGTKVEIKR
OUT: 11.5
